ASSAYED TARGET: T1, recombinant human IL-31 (hIL-31, BHK produced, A1277F, zcytor17lig CEE) (human, UniProt Q6EBC2 24-164)
T1 construct: also called recombinant hIL-31
T1 sequence: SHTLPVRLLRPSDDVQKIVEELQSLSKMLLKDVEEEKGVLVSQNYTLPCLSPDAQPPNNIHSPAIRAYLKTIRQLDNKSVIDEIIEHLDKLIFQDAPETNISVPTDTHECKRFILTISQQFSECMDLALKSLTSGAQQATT
EXPERIMENT DESCRIPTION: SPR (Biacore), mAb amine-coupled to CM5 chip, hIL-31 injected
PARAMETER MEASURED: kon (M⁻¹ s⁻¹)
Entry rule: numbers only, all in M⁻¹ s⁻¹.

>  <BINDER>
humanized 292.12.3.1 construct clone 23 (12VH5-gly + HC(fback) + LC(D70Q, F71Y, T72S)) (antibody, human IgG4, V domains shown) VH: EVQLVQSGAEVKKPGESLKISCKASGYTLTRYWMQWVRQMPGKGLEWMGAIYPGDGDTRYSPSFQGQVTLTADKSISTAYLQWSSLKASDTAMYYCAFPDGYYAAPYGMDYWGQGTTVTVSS VL: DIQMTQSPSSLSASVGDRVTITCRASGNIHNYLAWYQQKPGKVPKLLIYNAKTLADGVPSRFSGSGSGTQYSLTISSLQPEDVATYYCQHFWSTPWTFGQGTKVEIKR

>  <kon, M⁻¹ s⁻¹>
65000

$$$$
>  <BINDER>
humanized 292.12.3.1 construct clone 9 (12VH1-gly + HC(fback)) (antibody, human IgG4, V domains shown, also called 09) VH: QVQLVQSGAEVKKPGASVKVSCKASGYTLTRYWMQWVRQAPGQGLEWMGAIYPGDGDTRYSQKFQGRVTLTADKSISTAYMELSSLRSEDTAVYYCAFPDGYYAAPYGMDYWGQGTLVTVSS VL: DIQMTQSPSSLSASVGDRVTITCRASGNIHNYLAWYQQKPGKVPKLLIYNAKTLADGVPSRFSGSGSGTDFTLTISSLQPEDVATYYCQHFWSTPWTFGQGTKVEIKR

>  <kon, M⁻¹ s⁻¹>
43000

$$$$
>  <BINDER>
humanized 292.12.3.1 construct clone 13 (12VH1-gly + HC(F29L, M69L, R71A, T73K, V78A) + LC(fback)) (antibody, human IgG4, V domains shown) VH: QVQLVQSGAEVKKPGASVKVSCKASGYTLTRYWMQWVRQAPGQGLEWMGAIYPGDGDTRYSQKFQGRVTLTADKSISTAYMELSSLRSEDTAVYYCARPDGYYAAPYGMDYWGQGTLVTVSS VL: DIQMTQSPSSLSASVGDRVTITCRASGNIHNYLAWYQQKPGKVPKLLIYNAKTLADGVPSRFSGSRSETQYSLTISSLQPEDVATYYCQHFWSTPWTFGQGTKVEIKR

>  <kon, M⁻¹ s⁻¹>
120000

$$$$
>  <BINDER>
humanized 292.12.3.1 construct clone 7 (12VH1-gly + fback) (antibody, human IgG4, V domains shown, also called 07) VH: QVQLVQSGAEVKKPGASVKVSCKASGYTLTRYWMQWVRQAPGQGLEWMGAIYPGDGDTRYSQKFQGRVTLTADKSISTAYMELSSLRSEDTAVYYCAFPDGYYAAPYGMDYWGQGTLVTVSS VL: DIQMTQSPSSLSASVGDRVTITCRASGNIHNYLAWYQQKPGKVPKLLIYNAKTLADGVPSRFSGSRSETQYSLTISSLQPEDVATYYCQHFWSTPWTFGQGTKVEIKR

>  <kon, M⁻¹ s⁻¹>
33000

$$$$

We now examine a further binder.
Request: Please look up its kon: humanized 292.12.3.1 construct clone 8 (12VH5-gly + fback) (antibody, human IgG4, V domains shown, also called 08) VH: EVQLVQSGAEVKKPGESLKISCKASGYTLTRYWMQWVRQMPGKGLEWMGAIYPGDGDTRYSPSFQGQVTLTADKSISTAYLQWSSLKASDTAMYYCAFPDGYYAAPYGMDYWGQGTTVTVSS VL: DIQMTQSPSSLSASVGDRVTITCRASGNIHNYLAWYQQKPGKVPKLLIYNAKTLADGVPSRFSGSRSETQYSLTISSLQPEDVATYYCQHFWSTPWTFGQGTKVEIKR
Response: 28000
